List of pIC50 tested on Histone deacetylase 1 (Homo sapiens).
Sequence (Q13547 whole entry): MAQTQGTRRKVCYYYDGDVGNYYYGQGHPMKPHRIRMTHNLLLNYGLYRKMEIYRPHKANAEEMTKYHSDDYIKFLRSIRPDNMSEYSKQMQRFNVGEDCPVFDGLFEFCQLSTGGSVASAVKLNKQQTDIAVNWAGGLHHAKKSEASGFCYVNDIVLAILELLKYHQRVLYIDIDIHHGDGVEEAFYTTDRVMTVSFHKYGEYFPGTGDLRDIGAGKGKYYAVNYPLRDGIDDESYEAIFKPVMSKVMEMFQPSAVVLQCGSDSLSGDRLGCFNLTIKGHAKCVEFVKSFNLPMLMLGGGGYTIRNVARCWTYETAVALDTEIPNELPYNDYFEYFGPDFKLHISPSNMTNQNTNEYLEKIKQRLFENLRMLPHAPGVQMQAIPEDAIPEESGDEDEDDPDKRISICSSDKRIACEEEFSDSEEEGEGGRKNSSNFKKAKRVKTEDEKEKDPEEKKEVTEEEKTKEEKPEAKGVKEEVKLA
Numbers only, as −log10 of the molar value.

Nc1ccccc1NC(=O)CCCCCN1C(=O)c2cc(O)c(CN3CCOCC3)cc2C1=O; 5.40
Nc1ccccc1NC(=O)CCCCCN1C(=O)c2ccccc2C1=O; 5.70
Nc1ccccc1NC(=O)CCCCCCC(=O)c1ccccc1; 5.05

List the reported pIC50 of each compound below.
1. Nc1ccccc1NC(=O)CCCCCCC(=O)c1ccc(-c2ccccc2)nc1
2. COc1ccc(-c2ccc(C(=O)CCCCCCC(=O)Nc3ccccc3N)cc2)cc1OC
3. Nc1ccccc1NC(=O)CCCCCCC(=O)c1ccc(-c2ccccc2)cc1
4. Nc1ccccc1NC(=O)CCCCCCC(=O)c1cccc(-c2ccccc2)c1

Result:
[5.52, 5.40, 5.70, 6.00]

====

- system.under.test: Histone deacetylase
- test.description: Effect on induced hyperacetylation of histones in whole cells
- Format: functional, cell-based, Homo sapiens
quantity.name: EC50
Answer with the value and then the unit.

Nc1ccccc1NC(=O)CCCCCCC(=O)c1ccc(-c2ccccc2)nc1; 5 µM
Nc1ccccc1NC(=O)CCCCCCC(=O)c1ccc(-c2ccccc2)cc1; 10 µM
Nc1ccccc1NC(=O)CCCCCN1C(=O)c2cccc3c(CN4CCOCC4)c(O)cc(c23)C1=O; 2 µM
Nc1ccccc1NC(=O)CCCCCCC(=O)c1ccc(-c2cccnc2)cc1; 20 µM
COc1ccc(-c2ccc(C(=O)CCCCCCC(=O)Nc3ccccc3N)cc2)cc1OC; 3 µM

The following compounds each have a reported value; give each one's EC50.
1. Nc1ccccc1NC(=O)CCCCCN1C(=O)c2cccc3c(CN4CCCCC4)c(O)cc(c23)C1=O
2. Nc1ccccc1NC(=O)CCCCCN1C(=O)c2cccc3cccc(c23)C1=O

Result:
1 µM
3 µM

====

- system.under.test: Histone deacetylase
- test.description: Effect on induced hyperacetylation of histones in whole cells
- Assay type: functional, cell-based, Homo sapiens
Give measured EC50 for each item. Keep answers brief.

Examples with their reported EC50 follow.
Nc1ccccc1NC(=O)CCCCCN1C(=O)c2cccc3c(Br)ccc(c23)C1=O; 10 µM
Nc1ccccc1NC(=O)CCCCCN1Cc2ccccc2C1=O; 99 µM

Lab note: next molecule to report on.
Request: Which EC50 is reported for this molecule? `Nc1ccccc1NC(=O)CCCCCN1C(=O)c2ccccc2C1=O`
Result: 5 µM
